Entry source: patent US4458076A

- Tested on: phenyl-p-quinone writhing
- EXPERIMENT: analgetic activity in the phenyl-p-quinone writhing assay
- Format: in vivo
- DETAILS: Mus musculus, sc; subcutaneous dose effecting an approximately 50% inhibition of writhing in mice
Give ED50 for every item shown.
One number for each entry, in mg/kg.

| COMPOUND | STUDY SYSTEM | ED50 (mg/kg) |
| --- | --- | --- |
| c1ccc2c(C3CCN(CC4CC4)CC3)nsc2c1 | phenyl-p-quinone writhing | 0.07 |
| c1ccc(CCN2CCC(c3nsc4ccccc34)CC2)cc1 | phenyl-p-quinone writhing | 0.2 |

For each of the compounds below, state ED50.
1. CC(C)=CCN1CCC2(C)c3cc(O)ccc3CC1C2C (stereo not shown) [pentazocine, reference compound]
2. c1ccc2c(C3CCNCC3)nsc2c1 [3-(4-piperidinyl)-1,2-benzisothiazole]
3. CCC(=O)O[C@](Cc1ccccc1)(c1ccccc1)[C@H](C)CN(C)C [propoxyphene, reference compound]
4. CN1CCC(c2nsc3ccccc23)CC1
5. Fc1ccc2c(CCCN3CCC(c4nsc5ccccc45)CC3)noc2c1

[1.3, 2.1, 3.9, 0.73, 0.3]
